# TEST METHOD NOTES: Toxicity against human Huh7ET cells assessed as reduction in beta-actin RNA levels at 20 uM
# Type: cell-based, Huh-7
# ASSAY CONTEXT: Huh7ET cells, values are per cent of control
Entries and their measured response, % of control at 20 µM follow.
Provide only the numeric value, understood in %.

// below: answered compounds
| COMPOUND | UNIT OF MEASUREMENT | response, % of control at 20 µM |
| --- | --- | --- |
| COC(=O)[C@H]1[C@@H](C(=O)OC)C2(C(=O)OC)CC[C@@H]3[C@](C)(CCC[C@@]3(C)C(=O)OC)[C@H]2C[C@H]1C(=O)C(C)C (stereo partly drawn) | % | 88.1 |
| COC(=O)[C@H](C)NC(=O)[C@]1(C)CCC[C@]2(C)[C@H]3C[C@H]4C(C(C)C)=C[C@]3(CC[C@H]21)[C@@H]1C(=O)CCC(=O)[C@@H]14 | % | 54 |

Using the record for CC(C)C1=C[C@@]23CC[C@@H]4[C@](C)(CCC[C@@]4(C)C(=O)O)[C@H]2C[C@@H]1[C@H]1C(=O)CCC(=O)[C@H]13 , state its measured response, % of control at 20 µM.
88

---

# TEST METHOD NOTES: Cytotoxicity against Influenza A virus (A/Brisbane/10/2007(H3N2)) infected MDCK cells
# Format: cell-based, Canis lupus familiaris
# ASSAY CONTEXT: dog
MEASURED PROPERTY: log10 CC50 (log10 of the value in µM)
In plain terms, each number is the log10 of measured CC50 in µM.

// below: answered compounds
| SMILES CODE | NUMERIC READOUT |
| --- | --- |
| COC(=O)[C@]1(C)CCC[C@]2(C)[C@H]3C[C@H]4C(C(C)C)=C[C@]3(CC[C@H]21)[C@@H]1C(=O)[C@H]2O[C@H]2C(=O)[C@@H]14 | 1.36 |
| COC(=O)[C@]1(C)CCC[C@]2(C)[C@H]3C[C@H]4C(C(C)C)=C[C@]3(CC[C@H]21)[C@H]1[C@@H]4[C@@H](O)CC[C@@H]1O | 1.81 |
| COC(=O)[C@]1(C)CCC[C@]2(C)[C@H]3C[C@H]4C(C(C)C)=C[C@]3(CC[C@H]21)[C@@H]1C(=O)CC[C@H](OC(=O)/C=C/c2ccccc2)[C@@H]14 | 1.23 |
| COC(=O)[C@]1(C)CCC[C@]2(C)[C@H]3C[C@H]4C(C(C)C)=C[C@]3(CC[C@H]21)[C@@H]1/C(=N/O)CCC2(OCCO2)[C@@H]14 | 0.52 |
| COC(=O)[C@H]1[C@@H](C(=O)OC)[C@@]23C=C(C(C)C)[C@@H]1C[C@@H]2[C@@]1(C)CCC[C@@](C)(C(=O)OC)[C@@H]1CC3 | 0.88 |

Using the record for COC(=O)[C@]1(C)CCC[C@]2(C)[C@H]3C[C@H]4C(C(C)C)=C[C@]3(CC[C@H]21)[C@@H]1/C(=N/O)CCC(=O)[C@@H]14 , state its measured log10 CC50.
1.11

Using the record for COC(=O)[C@]1(C)CCC[C@]2(C)[C@H]3C[C@H]4C(C(C)C)=C[C@]3(CC[C@H]21)[C@@H]1/C(=N/OC(C)=O)CC[C@H](OC(C)=O)[C@@H]14 , state its measured log10 CC50.
0.52

Using the record for COC(=O)[C@]1(C)CCC[C@]2(C)[C@H]3C[C@@H]4[C@@H]5[C@H]6[C@H](OC(C)=O)CC[C@@H]5OC4(C(C)C)C[C@]63CC[C@H]21 , state its measured log10 CC50.
0.70

Using the record for CC(C)C1=C[C@@]23CC[C@@H]4[C@](C)(CCC[C@@]4(C)C(=O)O)[C@H]2C[C@@H]1[C@H]1C(=O)CCC(=O)[C@H]13 , state its measured log10 CC50.
1.56

Using the record for COC(=O)[C@]1(C)CCC[C@]2(C)[C@H]3C[C@H]4C(C(C)C)=C[C@]3(CC[C@H]21)[C@@H]1C(=O)CC[C@H](OCCC#N)[C@@H]14 , state its measured log10 CC50.
1.83
